# target_or_system: T1, human PD-L1 on hPD-L1/CHO-K1 overexpressing cells (human, UniProt Q9NZQ7 19-290)
# T1 construct: whole, on cells; also called human PD-L1-expressing cells
# T1 sequence (Q9NZQ7 19-290): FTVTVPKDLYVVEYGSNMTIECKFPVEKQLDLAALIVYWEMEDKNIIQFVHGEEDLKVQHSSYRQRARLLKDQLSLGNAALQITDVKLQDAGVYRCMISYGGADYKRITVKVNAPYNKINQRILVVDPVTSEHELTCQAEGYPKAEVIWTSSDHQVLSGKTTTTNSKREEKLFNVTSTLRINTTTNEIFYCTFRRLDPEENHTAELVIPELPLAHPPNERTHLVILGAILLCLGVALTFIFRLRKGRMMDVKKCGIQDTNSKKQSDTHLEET
# assay_explanation: flow cytometry on hPD-L1/CHO-K1 cells (sheet label hPD-1/CHO-K1)
measurement_label: Geo Mean, all events
# output: bare number, no unit

Identify the reported Geo Mean, all events for the following entry. ME4.A2 anti-PD-L1 antibody (IgG form) (antibody, V domains shown) VH: QVQLVESGAEVKKPGSSVKVSCKASGGTFNNYAVSWVRQAPGQGLEWMGRIIPILGIANYAQTFQGRVTITADKSTTTAYMELSSLRSEDTAVYYCARSSRGYAHGAFDIWGQGTMVTVSS VL: QFVLTQPPSVSGAPGQRVTISCTGSSSNIGAGYDVHWYQQLPGTAPKVLIYGNSDRPSGVPDRFSGSKSGTSASLAITGLQGEDKATYYCQSYDSRLSGPVFGTGTKVTVLG 20.7

Identify the reported Geo Mean, all events for the following entry. ME4 anti-PD-L1 antibody (IgG form) (antibody, V domains shown, Converted to IgG with the vectors pIgGHD-6A6Hvy and pIgGLD-6A6Lgt; Expressed in Expi293F cells) VH: QVQLVESGAEVKKPGSSVKVSCKASGGTFNNYAVSWVRQAPGQGLEWMGRIIPILGIANYAQTFQGRVTITADKSTTTAYMELSSLRSEDTAVYYCARSYSGYAEGAFDIWGQGTMVTVSS VL: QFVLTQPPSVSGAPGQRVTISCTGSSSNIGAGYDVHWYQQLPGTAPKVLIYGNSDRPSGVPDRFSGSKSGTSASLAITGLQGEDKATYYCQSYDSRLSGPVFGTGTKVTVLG 27.8

Identify the reported Geo Mean, all events for the following entry. ME4.B12 anti-PD-L1 antibody (IgG form) (antibody, V domains shown) VH: QVQLVESGAEVKKPGSSVKVSCKASGGTFNNYAVSWVRQAPGQGLEWMGRIIPILGIANYAQTFQGRVTITADKSTTTAYMELSSLRSEDTAVYYCARSSFGYSVGAFDIWGQGTMVTVSS VL: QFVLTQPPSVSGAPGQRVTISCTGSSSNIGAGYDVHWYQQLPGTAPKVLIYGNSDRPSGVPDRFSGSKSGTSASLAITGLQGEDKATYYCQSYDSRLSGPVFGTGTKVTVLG 22.5
